study target: human Kv1.3 (Homo sapiens (Human))
Sequence (P22001 whole entry): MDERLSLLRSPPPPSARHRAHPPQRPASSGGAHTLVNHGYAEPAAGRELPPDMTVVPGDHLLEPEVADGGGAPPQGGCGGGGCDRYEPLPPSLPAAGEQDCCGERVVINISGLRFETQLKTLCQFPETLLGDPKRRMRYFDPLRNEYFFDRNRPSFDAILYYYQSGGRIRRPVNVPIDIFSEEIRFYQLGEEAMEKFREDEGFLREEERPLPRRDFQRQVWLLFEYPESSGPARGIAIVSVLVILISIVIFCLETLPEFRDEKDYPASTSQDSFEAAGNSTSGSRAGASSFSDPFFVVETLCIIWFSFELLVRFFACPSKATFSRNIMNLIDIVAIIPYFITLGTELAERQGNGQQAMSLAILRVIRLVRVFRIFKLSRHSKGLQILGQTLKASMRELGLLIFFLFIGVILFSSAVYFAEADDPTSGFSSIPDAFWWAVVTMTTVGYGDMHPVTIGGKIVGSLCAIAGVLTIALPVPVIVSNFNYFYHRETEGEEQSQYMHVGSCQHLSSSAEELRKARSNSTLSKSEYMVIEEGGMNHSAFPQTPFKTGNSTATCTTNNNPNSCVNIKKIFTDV
procedure details: Kv1.3 potency evaluation, automated patch clamp electrophysiology (QPatch HT) in CHO-Kv1.3 cells
cond: whole-cell QPatch HT, % inhibition of charge, step to +30 mV, four concentrations, N≥3 cells, read-out: hKv1.3 IC50
pIC50: −log10 of the molar value.

molecule: C[C@@]1(C(=O)Nc2ccccc2)CN=C(C23CC(N(Cc4ccc(C(F)(F)F)cc4)S(=O)(=O)c4ccc(F)cc4)(C2)C3)N1 (mixture of isomers)
pIC50: 5.99
--
molecule: CC1(C)N=C(C23CC(N(Cc4ccc(Cl)c(F)c4)S(=O)(=O)c4ccccc4)(C2)C3)N[C@H]1C(=O)N1CCC(F)(F)C1 (mixture of isomers)
pIC50: 7.19
--
molecule: CC1(C)N=C(C23CC(N(Cc4ccc(Cl)c(F)c4)S(=O)(=O)c4ccccc4)(C2)C3)N[C@H]1C(=O)NCC1(F)CCC1 (mixture of isomers)
pIC50: 7.35
--
molecule: CC1(C)N=C(C23CC(N(Cc4ccc(Cl)cc4)S(=O)(=O)c4cccc(F)c4)(C2)C3)N[C@H]1C(=O)NCCC(F)(F)F (mixture of isomers)
pIC50: 7.29
--
molecule: CC1(C)N=C(C23CC(N(Cc4ccc(C(F)(F)F)cc4)S(=O)(=O)c4ccccc4)(C2)C3)NC1C(=O)NCCC(F)(F)F (centres unmarked)
pIC50: 6.77
--
molecule: CC1(C)N=C(C23CC(N(Cc4ccc(Cl)cc4)S(=O)(=O)CC4CC(F)(F)C4)(C2)C3)N[C@H]1C(=O)NCCC(F)(F)F (mixture of isomers)
pIC50: 6.69
--
molecule: CCCC1(C(=O)NCC2CCC2)CN=C(C23CC(N(Cc4ccc(C(F)(F)F)cc4)S(=O)(=O)c4ccc(F)cc4)(C2)C3)N1 (centres unmarked)
pIC50: 6.26
--
molecule: CC1(C)N=C(C23CC(N(Cc4ccc(Cl)cc4)S(=O)(=O)CCC(F)(F)F)(C2)C3)N[C@H]1C(=O)NCCC(F)(F)F (mixture of isomers)
pIC50: 6.88
--
molecule: C[C@@]1(C(=O)NCC2CCC2)CN=C(C23CC(N(Cc4ccc(C(F)(F)F)cc4)S(=O)(=O)c4ccc(F)cc4)(C2)C3)N1 (mixture of isomers)
pIC50: 6.58
--
molecule: CC1(C)N=C(C23CC(N(Cc4ccc(Cl)c(F)c4)S(=O)(=O)c4ccccc4)(C2)C3)N[C@H]1C(=O)N1CC2(CCC2)C1 (mixture of isomers)
pIC50: 7.20
--
molecule: CCCS(=O)(=O)N(Cc1ccc(Cl)c(Cl)c1)C12CC(C3=NC(C)(C)[C@H](C(=O)NCCCC(F)(F)F)N3)(C1)C2 (mixture of isomers)
pIC50: 6.79

====

study target: human Kv1.3 (Homo sapiens (Human))
procedure details: Kv1.3 potency evaluation, automated patch clamp electrophysiology (QPatch HT) in CHO-Kv1.3 cells
cond: whole-cell QPatch HT, % inhibition of charge, step to +30 mV, four concentrations, N≥3 cells, read-out: hKv1.3 IC50

molecule: CC(C)NC(=O)[C@@]1(C)CN=C(C23CC(N(Cc4ccc(C(F)(F)F)cc4)S(=O)(=O)c4ccc(F)cc4)(C2)C3)N1C (mixture of isomers) [Example 213]
IC50, nM: 152
--
molecule: CC1(C)N=C(C23CC(N(Cc4ccc(Cl)cc4)S(=O)(=O)CCC(F)F)(C2)C3)N[C@H]1C(=O)NCCC(F)(F)F (mixture of isomers) [Example 137]
IC50, nM: 82
--
molecule: CC1(C)N=C(C23CC(N(Cc4ccc(Cl)cc4)S(=O)(=O)c4ccccc4Cl)(C2)C3)N[C@H]1C(=O)NCCC(F)(F)F (mixture of isomers) [Example 107]
IC50, nM: 71

====

study target: human Kv1.3 (Homo sapiens (Human))
procedure details: Kv1.3 potency evaluation, automated patch clamp electrophysiology (QPatch HT) in CHO-Kv1.3 cells
cond: whole-cell QPatch HT, % inhibition of charge, step to +30 mV, four concentrations, N≥3 cells, read-out: hKv1.3 IC50
pIC50: −log10 of the molar value.

compound: CN(CC1CC(F)(F)C1)C(=O)[C@@H]1NC(C23CC(N(Cc4ccc(Cl)c(Cl)c4)S(=O)(=O)c4ccccc4)(C2)C3)=NC1(C)C (mixture of isomers)
study target: human Kv1.3 (Homo sapiens (Human))
pIC50: 7.14
--
compound: CC1(C)N=C(C23CC(N(Cc4ccc(C(F)(F)F)cc4)S(=O)(=O)c4ccc(F)cc4)(C2)C3)NC1C(=O)NCC1(O)CCC1 (stereo not shown)
study target: human Kv1.3 (Homo sapiens (Human))
pIC50: 6.31
--
compound: CC1(C)N=C(C23CC(N(Cc4ccc(Cl)c(F)c4)S(=O)(=O)c4ccccc4)(C2)C3)N[C@H]1C(=O)N1CCCC(F)(F)CC1 (mixture of isomers)
study target: human Kv1.3 (Homo sapiens (Human))
pIC50: 7.11
--
compound: CC(C)(C)CNC(=O)[C@@H]1NC(C23CC(N(Cc4ccc(Cl)c(Cl)c4)S(=O)(=O)CCC(C)(F)F)(C2)C3)=NC1(C)C (mixture of isomers)
study target: human Kv1.3 (Homo sapiens (Human))
pIC50: 6.87
--
compound: CN(CC(C)(C)F)C(=O)[C@@H]1NC(C23CC(N(Cc4ccc(Cl)c(Cl)c4)S(=O)(=O)c4ccccc4)(C2)C3)=NC1(C)C (mixture of isomers)
study target: human Kv1.3 (Homo sapiens (Human))
pIC50: 7.30
--
compound: C[C@]1(C(=O)NCC2CC2)CN=C(C23CC(N(Cc4ccc(C(F)(F)F)cc4)S(=O)(=O)c4ccc(F)cc4)(C2)C3)N1 (mixture of isomers)
study target: human Kv1.3 (Homo sapiens (Human))
pIC50: 6.77
--
compound: CC1(C)N=C(C23CC(N(Cc4ccc(Cl)cc4)S(=O)(=O)N4CCCC4)(C2)C3)N[C@H]1C(=O)NCCC(F)(F)F (mixture of isomers)
study target: human Kv1.3 (Homo sapiens (Human))
pIC50: 7.34
--
compound: CC1(NC(=O)[C@@]2(C)CN=C(C34CC(N(Cc5ccc(C(F)(F)F)cc5)S(=O)(=O)c5ccc(F)cc5)(C3)C4)N2)CCC1 (mixture of isomers)
study target: human Kv1.3 (Homo sapiens (Human))
pIC50: 6.72
--
compound: CC1(C)N=C(C23CC(N(Cc4ccc(Cl)cc4)S(=O)(=O)c4cccc(Cl)c4)(C2)C3)N[C@H]1C(=O)NCCC(F)(F)F (mixture of isomers)
study target: human Kv1.3 (Homo sapiens (Human))
pIC50: 7.31
--
compound: CC1(C)N=C(C23CC(N(Cc4cccc(Cl)c4)S(=O)(=O)c4ccccc4)(C2)C3)N[C@H]1C(=O)NCCC(F)(F)F (mixture of isomers)
study target: human Kv1.3 (Homo sapiens (Human))
pIC50: 7.46
--
compound: CCCS(=O)(=O)N(Cc1ccc(Cl)c(Cl)c1)C12CC(C3=NC(C)(C)[C@H](C(=O)NCCC(F)(F)F)N3)(C1)C2 (mixture of isomers)
study target: human Kv1.3 (Homo sapiens (Human))
pIC50: 7.09
--
compound: CC1(C)N=C(C23CC(N(Cc4ccc(Cl)cc4)S(C)(=O)=O)(C2)C3)N[C@H]1C(=O)NCCC(F)(F)F (mixture of isomers)
study target: human Kv1.3 (Homo sapiens (Human))
pIC50: 6.25
--
compound: CCCCCS(=O)(=O)N(Cc1ccc(Cl)cc1)C12CC(C3=NC(C)(C)[C@H](C(=O)NCCC(F)(F)F)N3)(C1)C2 (mixture of isomers)
study target: human Kv1.3 (Homo sapiens (Human))
pIC50: 7.21
--
compound: CC1(C)N=C(C23CC(N(Cc4ccc(Cl)c(F)c4)S(=O)(=O)c4ccccc4)(C2)C3)N[C@H]1C(=O)NC1CC(C(F)F)C1 (mixture of isomers) [Example 84]
study target: human Kv1.3 (Homo sapiens (Human))
pIC50: 7.21
--
compound: CC1(C)N=C(C23CC(N(Cc4ccc(Cl)cc4)S(=O)(=O)c4ccccc4[N+](=O)[O-])(C2)C3)N[C@H]1C(=O)NCCC(F)(F)F (mixture of isomers)
study target: human Kv1.3 (Homo sapiens (Human))
pIC50: 6.94
--
compound: CC1(C)N=C(C23CC(N(Cc4ccc(Cl)cc4)S(=O)(=O)CCCCF)(C2)C3)N[C@H]1C(=O)NCCC(F)(F)F (mixture of isomers)
study target: human Kv1.3 (Homo sapiens (Human))
pIC50: 7.17
--
compound: CCCS(=O)(=O)N(Cc1ccc(Cl)c(Cl)c1)C12CC(C3=NC(C)(C)[C@H](C(=O)NC4CCC(F)(F)CC4)N3)(C1)C2 (mixture of isomers)
study target: human Kv1.3 (Homo sapiens (Human))
pIC50: 6.99
--
compound: CC(C)NC(=O)[C@@]1(C)CN=C(C23CC(N(Cc4ccccc4)S(=O)(=O)c4ccc(F)cc4)(C2)C3)N1 (mixture of isomers)
study target: human Kv1.3 (Homo sapiens (Human))
pIC50: 6.60
--
compound: CN(CC(C)(C)F)C(=O)[C@@H]1NC(C23CC(N(Cc4ccc(Cl)c(F)c4)S(=O)(=O)c4ccccc4)(C2)C3)=NC1(C)C (mixture of isomers)
study target: human Kv1.3 (Homo sapiens (Human))
pIC50: 7.19
--
compound: CC(C)C1(C(=O)NCC2CCC2)CN=C(C23CC(N(Cc4ccc(C(F)(F)F)cc4)S(=O)(=O)c4ccc(F)cc4)(C2)C3)N1 (stereo not shown)
study target: human Kv1.3 (Homo sapiens (Human))
pIC50: 6.38
--
compound: CN(CC(F)(F)C(F)(F)F)C(=O)[C@@H]1NC(C23CC(N(Cc4ccc(Cl)c(F)c4)S(=O)(=O)c4ccccc4)(C2)C3)=NC1(C)C (mixture of isomers)
study target: human Kv1.3 (Homo sapiens (Human))
pIC50: 6.97
--
compound: CCCS(=O)(=O)N(Cc1ccc(Cl)cc1)C12CC(C3=NC(C)(C)[C@H](C(=O)NCCC(F)(F)F)N3)(C1)C2 (mixture of isomers)
study target: human Kv1.3 (Homo sapiens (Human))
pIC50: 7.59
